- Subject of test: CYP2C9 (Homo sapiens, UniProt P11712)
- Sequence (P11712 whole entry): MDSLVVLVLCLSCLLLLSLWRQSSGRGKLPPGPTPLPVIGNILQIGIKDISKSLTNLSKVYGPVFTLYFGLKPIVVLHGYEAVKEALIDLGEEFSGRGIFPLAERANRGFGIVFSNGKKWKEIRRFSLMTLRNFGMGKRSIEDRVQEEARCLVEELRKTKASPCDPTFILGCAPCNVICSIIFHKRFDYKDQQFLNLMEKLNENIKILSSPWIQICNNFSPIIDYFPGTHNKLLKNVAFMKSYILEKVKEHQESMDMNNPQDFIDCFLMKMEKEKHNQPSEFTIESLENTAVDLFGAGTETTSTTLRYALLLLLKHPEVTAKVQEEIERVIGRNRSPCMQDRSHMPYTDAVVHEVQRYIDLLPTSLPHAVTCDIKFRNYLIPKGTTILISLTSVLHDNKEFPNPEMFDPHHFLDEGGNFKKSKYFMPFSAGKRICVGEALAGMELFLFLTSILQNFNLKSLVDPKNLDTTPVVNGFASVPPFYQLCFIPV
- Assay info: Reversible CYP inhibition in human liver microsomes
- Recorded conditions: human, microsomes, pH 7.4, Percent of Control Activity, CYP 2C9, 0.398 µM, 30-Minute Preincubation
Measured property: activity at 0.398 µM (%)
Please give a number only; it is taken to be in %.

The compound COc1cccc2[nH]c(C(=O)N[C@@H](CC(C)C)C(=O)N[C@@H](C[C@@H]3CCNC3=O)C(=O)COP(=O)(O)O)cc12 , when measured on CYP2C9 (Homo sapiens, UniProt P11712), yielded activity at 0.398 µM of 106

====

- Assay info: Rat pharmacokinetic study
- Recorded conditions: male, Wistar-Hannover, rat, plasma, iv, 2 mg/kg, AUCinf, Mean, PF-00835231 active dosed 2mg/kg intravenous
Measured property: AUC(0-inf)

Value of measured AUC(0-inf) for the entry COc1cccc2[nH]c(C(=O)N[C@@H](CC(C)C)C(=O)N[C@@H](C[C@@H]3CCNC3=O)C(=O)CO)cc12 : 1250 ng·h/mL

====

- Subject of test: CYP1A2 (Homo sapiens)
- Sequence (P05177 whole entry): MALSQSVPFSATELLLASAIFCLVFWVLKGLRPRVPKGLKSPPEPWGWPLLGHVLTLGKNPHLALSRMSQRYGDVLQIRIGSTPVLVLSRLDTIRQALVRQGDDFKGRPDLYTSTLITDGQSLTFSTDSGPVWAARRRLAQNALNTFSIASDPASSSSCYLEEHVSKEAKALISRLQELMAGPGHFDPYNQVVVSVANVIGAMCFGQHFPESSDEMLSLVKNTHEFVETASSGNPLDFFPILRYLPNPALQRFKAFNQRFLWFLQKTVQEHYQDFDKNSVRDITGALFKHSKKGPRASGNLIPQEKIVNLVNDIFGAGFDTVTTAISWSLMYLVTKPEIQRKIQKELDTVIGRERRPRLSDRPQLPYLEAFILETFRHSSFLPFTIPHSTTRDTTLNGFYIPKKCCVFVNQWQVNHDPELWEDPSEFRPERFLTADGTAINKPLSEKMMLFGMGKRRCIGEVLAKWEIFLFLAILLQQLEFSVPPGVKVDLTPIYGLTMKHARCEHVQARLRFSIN
- Assay info: Reversible CYP inhibition in human liver microsomes
- Recorded conditions: human, microsomes, pH 7.4, Percent of Control Activity, CYP 1A2, 0.979 µM, Zero-Minute Preincubation
Measured property: activity at 0.979 µM (%)
// units = %; emit number, no label

Value sought: activity at 0.979 µM, system CYP1A2 (Homo sapiens), item COc1cccc2[nH]c(C(=O)N[C@@H](CC(C)C)C(=O)N[C@@H](C[C@@H]3CCNC3=O)C(=O)CO)cc12 . Result: 97.6

====

- Subject of test: CYP2C8 (Homo sapiens, UniProt P10632)
- Sequence (P10632 whole entry): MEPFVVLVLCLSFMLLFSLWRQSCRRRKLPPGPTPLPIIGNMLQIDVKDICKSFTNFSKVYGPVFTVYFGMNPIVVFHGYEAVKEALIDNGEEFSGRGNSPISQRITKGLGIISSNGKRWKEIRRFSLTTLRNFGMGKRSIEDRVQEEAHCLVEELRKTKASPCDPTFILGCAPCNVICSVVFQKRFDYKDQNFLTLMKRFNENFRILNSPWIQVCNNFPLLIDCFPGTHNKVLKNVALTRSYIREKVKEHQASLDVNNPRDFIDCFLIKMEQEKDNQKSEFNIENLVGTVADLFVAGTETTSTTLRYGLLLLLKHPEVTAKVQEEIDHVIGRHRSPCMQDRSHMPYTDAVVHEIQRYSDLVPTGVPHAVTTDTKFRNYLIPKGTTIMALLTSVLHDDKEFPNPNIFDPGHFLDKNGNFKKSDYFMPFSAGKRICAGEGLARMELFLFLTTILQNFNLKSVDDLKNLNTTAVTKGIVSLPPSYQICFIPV
- Assay info: Reversible CYP inhibition in human liver microsomes
- Recorded conditions: human, microsomes, pH 7.4
pIC50: −log10 of the molar value.
Measured property: pIC50

Form field pIC50, entry COc1cccc2[nH]c(C(=O)N[C@@H](CC(C)C)C(=O)N[C@@H](C[C@@H]3CCNC3=O)C(=O)CO)cc12 : < 3.70

====

- Assay info: Metabolic stability and enzyme kinetics in liver S9 (conversion to PF-00835231)
- Recorded conditions: rat, rat liver S9, pH 7.5, Km, Rat; best-fit, Two enzyme: MM + Unsaturable
Measured property: Km at 20 min
// return the numeric value with its unit appended

Per the records, this compound ( COc1cccc2[nH]c(C(=O)N[C@@H](CC(C)C)C(=O)N[C@@H](C[C@@H]3CCNC3=O)C(=O)COP(=O)(O)O)cc12 [PF-07304814] ) has Km at 20 min equal to 53.4 µM

====

- System: CYP3A4/5
- Assay info: Reversible CYP inhibition in human liver microsomes
- Recorded conditions: human, human liver microsomes, pH 7.4, probe midazolam (mdz), Percent of Control Activity, CYP 3A4/5 (mdz), 15.8 µM, Zero-Minute Preincubation
Measured property: activity at 15.8 µM
Returns: string containing the numeric result and its unit.

Measured activity at 15.8 µM of COc1cccc2[nH]c(C(=O)N[C@@H](CC(C)C)C(=O)N[C@@H](C[C@@H]3CCNC3=O)C(=O)COP(=O)(O)O)cc12 : 101%

====

- Test system: CYP3A4/5
- Assay info: Reversible CYP inhibition in human liver microsomes
- Recorded conditions: human, human liver microsomes, pH 7.4, probe testosterone (tst), Percent of Control Activity, CYP 3A4/5 (tst), 200 µM, Zero-Minute Preincubation
Measured property: activity at 200 µM (%)
I only need the number, in %, no unit after it.

The measured activity at 200 µM associated with COc1cccc2[nH]c(C(=O)N[C@@H](CC(C)C)C(=O)N[C@@H](C[C@@H]3CCNC3=O)C(=O)CO)cc12 reads 36.4
